System: Plasmodium berghei
Experiment: Screen against P. berghei liver stage (PbLuc), transformed with Luciferase, at 10uM
Assay type: functional, HepG2
Details: tested at 10 uM
Among all 69,000 compounds or so, about 8,600 (12%) showed an effect of 50% or more. Many of the other results were omitted from the sample, so strong results are more common in it than they were.
Entry flag: yes if INHIBITION reaches 40%; no if it does not.

Field: example entries. Status: answers known.
[[record]]
compound = "CCc1ccc(CCNc2ncnc3c2CCN(C(=O)C2CC2)C3)cc1"
assigned_category = "yes"

[[record]]
compound = "CCNC(=O)c1nnn(Cc2ccccc2)c1OC"
assigned_category = "no"

[[record]]
compound = "CN1CC[C@]2(CN(CC3CC3)C[C@H]2c2ccccc2)C1=O"
assigned_category = "yes"


Please indicate if the recorded INHIBITION for `COCCNC(=O)c1nnn(Cc2ccccc2)c1OC` meets or exceeds 40%.
no

Please indicate if the recorded INHIBITION for `CCOCc1cccc(S(=O)(=O)Nc2ccn(CC)n2)c1` meets or exceeds 40%.
no

Please indicate if the recorded INHIBITION for `O=S(=O)(C1CC1)N1CC[C@H]2OCC[C@@]2(COc2ncccc2F)C1` meets or exceeds 40%.
no

Please indicate if the recorded INHIBITION for `COc1c(C(=O)NCC(C)C)nnn1Cc1ccccc1` meets or exceeds 40%.
yes

Please indicate if the recorded INHIBITION for `CS(=O)(=O)c1ccc(NC(=O)NC2(c3ccccc3)CCC2)cc1` meets or exceeds 40%.
no

Please indicate if the recorded INHIBITION for CN1CC[C@]2(CN(CC3CCOC3)C[C@H]2c2ccccc2)C1=O (some centres not stated) meets or exceeds 40%.
yes

Please indicate if the recorded INHIBITION for CN(C)C(=O)N1CCOCC2(CCN(c3ccccn3)C2)C1 (configuration not stated) meets or exceeds 40%.
no

Please indicate if the recorded INHIBITION for `O=C1NCC[C@]12CN(CC1CCOCC1)C[C@H]2c1ccccc1` meets or exceeds 40%.
no

Attribution: ChEMBL document CHEMBL4513216
